Data credit: patent US20250387379A1

biological target: MAP2K1 (MEK1) (Homo sapiens (Human), UniProt Q02750)
Sequence (Q02750 whole entry): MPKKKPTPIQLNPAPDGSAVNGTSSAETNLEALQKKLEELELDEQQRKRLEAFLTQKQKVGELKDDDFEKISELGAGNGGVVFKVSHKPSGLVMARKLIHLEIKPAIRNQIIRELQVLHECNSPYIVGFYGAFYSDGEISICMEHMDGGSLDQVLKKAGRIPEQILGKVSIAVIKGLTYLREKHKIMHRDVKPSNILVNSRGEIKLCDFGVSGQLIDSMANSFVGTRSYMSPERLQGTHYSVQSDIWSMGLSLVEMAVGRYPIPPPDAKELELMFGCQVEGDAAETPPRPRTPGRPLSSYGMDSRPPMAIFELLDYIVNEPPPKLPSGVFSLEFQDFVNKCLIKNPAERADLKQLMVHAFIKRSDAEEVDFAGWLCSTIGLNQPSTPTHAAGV
Parameter Measured: IC50

Worked cases, answers included:
{"Molecule": "O=c1c2c(Nc3ccc(I)cc3F)cncc2ccn1C[C@@H](O)CO [Compound 5.001]", "Observed Result": "≤ 150 nM"}
{"Molecule": "O=C1CCCc2c1sc(Nc1ccc(I)cc1F)c2C(=O)NC[C@@H](O)CO [Compound 4.035]", "Observed Result": "≤ 150 nM"}

Hi, could you look up IC50 for each item in my list?
1. N#Cc1ccc(C(=O)NO)c(Nc2ccc(I)cc2F)c1 [Compound 1.017]
2. N#Cc1ccc(C(=O)NOCC2CC2)c(Nc2ccc(I)cc2F)c1F [Compound 1.031]
3. O=C1CCCc2c1sc(Nc1ccc(I)cc1F)c2C(=O)NOCCO [Compound 4.029]
4. O=C1CCCc2c1sc(Nc1ccc(I)cc1F)c2C(=O)NOC[C@H](O)CO [Compound 4.030]
5. N#Cc1ccc(C(=O)NOCCO)c(Nc2ccc(I)cc2F)c1 [Compound 1.010]

Out:
1: ≤ 150 nM; 2: ≤ 150 nM; 3: ≤ 150 nM; 4: ≤ 150 nM; 5: ≤ 150 nM

Hi, could you look up IC50 for each item in my list?
1. COC(=O)CCONC(=O)c1ccc(C#N)cc1Nc1ccc(I)cc1F [Compound 1.022]
2. COC(=O)Cn1ccc2cncc(Nc3ccc(I)cc3F)c2c1=O [Compound 5.005]
3. N#Cc1ccc(C(=O)N2CC(O)C2)c(Nc2ccc(I)cc2F)c1 [Compound 1.002]

Out:
1: > 1500 nM; 2: > 1500 nM; 3: > 1500 nM

In: Find the recorded IC50 belonging to O=C1CCCc2c1sc(Nc1ccc(I)cc1F)c2C(=O)NC[C@H](O)CO [Compound 4.034] and report it.
Out: ≤ 150 nM
